- system name: T1, human complement component C5 (human, UniProt P01031 19-673; P01031 678-1676)
- T1 construct: mature; Mature C5 is a disulphide-linked beta and alpha chain cut from one precursor; Terbium-labelled in the FRET assays, biotinylated in part of the phage ELISA; also called human C5; C5-Tb
- T1 sequence (P01031 19-673 limits assumed, chain 1 of 2): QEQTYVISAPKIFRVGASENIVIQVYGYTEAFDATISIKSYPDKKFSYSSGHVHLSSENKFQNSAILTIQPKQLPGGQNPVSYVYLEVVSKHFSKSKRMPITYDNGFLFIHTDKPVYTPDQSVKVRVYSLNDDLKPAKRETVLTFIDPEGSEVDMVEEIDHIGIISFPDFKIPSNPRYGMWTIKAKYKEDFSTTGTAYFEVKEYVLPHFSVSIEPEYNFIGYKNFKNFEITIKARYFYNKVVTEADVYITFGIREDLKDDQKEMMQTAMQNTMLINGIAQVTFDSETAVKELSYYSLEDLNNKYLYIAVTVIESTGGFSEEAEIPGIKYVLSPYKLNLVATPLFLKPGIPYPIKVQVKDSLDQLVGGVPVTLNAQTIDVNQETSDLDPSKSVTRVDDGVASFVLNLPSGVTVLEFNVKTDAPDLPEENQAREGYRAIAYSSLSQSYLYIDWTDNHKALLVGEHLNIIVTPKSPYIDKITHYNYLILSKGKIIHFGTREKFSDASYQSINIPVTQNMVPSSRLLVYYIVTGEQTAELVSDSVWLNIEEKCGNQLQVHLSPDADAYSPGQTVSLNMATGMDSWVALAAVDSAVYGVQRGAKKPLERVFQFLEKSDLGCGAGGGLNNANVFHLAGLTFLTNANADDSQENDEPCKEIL
- T1 sequence (P01031 678-1676 limits assumed, chain 2 of 2): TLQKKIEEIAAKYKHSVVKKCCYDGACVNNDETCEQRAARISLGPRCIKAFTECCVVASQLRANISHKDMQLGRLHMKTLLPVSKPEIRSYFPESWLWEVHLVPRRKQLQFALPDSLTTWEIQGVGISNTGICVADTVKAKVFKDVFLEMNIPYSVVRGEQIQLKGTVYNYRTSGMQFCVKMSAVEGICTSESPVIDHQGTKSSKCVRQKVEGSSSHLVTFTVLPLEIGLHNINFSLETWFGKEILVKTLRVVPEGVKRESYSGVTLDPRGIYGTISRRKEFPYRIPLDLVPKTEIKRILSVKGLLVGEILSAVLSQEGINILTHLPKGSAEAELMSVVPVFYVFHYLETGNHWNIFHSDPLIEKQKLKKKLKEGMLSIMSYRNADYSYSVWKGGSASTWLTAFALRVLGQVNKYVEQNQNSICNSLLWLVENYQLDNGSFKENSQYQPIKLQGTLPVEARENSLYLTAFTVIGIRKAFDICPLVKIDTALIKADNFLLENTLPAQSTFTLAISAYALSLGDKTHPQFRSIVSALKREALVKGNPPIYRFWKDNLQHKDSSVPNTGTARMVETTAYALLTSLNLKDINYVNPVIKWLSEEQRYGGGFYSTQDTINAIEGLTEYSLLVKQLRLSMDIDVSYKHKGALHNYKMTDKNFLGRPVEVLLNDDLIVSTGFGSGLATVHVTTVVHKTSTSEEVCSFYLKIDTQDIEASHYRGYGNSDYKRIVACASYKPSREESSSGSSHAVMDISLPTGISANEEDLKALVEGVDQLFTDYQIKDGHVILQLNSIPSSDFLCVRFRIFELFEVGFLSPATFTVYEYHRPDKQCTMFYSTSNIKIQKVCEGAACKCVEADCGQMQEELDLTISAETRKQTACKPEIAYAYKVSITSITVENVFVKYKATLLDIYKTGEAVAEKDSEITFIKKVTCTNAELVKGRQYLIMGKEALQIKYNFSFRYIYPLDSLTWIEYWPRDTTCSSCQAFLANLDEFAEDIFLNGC
- protocol details: SPR multi-cycle kinetics, human C5 immobilised, mean of n=3
Just a reminder that ties go to FALSE: only kon strictly below 20000 M⁻¹ s⁻¹ counts as TRUE.

{"columns": ["binder", "class"],
 "data": [
  ["TCPEGWSECGVAIAGYECGRWGCGHFLNSGPNISPYVST [K92chemFE Y14A]", "FALSE"],
  ["TCPEGWSECGVAIYGYECGRHGCGHFLNSGPNISPYVST [K92chemFE W21H]", "FALSE"],
  ["TCPEGWSECGVAIYGYECGRAGCGHFLNSGPNISPYVST [K92chemFE W21A]", "TRUE"],
  ["TCPEGWSECGVAIYGYECGRWGCGHALNSGPNISPYVST [K92chemFE F26A]", "FALSE"],
  ["TCPEGASECGVAIYGYECGRWGCGHFLNSGPNISPYVST [K92chemFE W6A]", "TRUE"]
]}
